// data source = patent US6756210B2

# target-desc: recombinant mouse sEH (MsEH) (Mus musculus)
# Sequence (P34914 whole entry): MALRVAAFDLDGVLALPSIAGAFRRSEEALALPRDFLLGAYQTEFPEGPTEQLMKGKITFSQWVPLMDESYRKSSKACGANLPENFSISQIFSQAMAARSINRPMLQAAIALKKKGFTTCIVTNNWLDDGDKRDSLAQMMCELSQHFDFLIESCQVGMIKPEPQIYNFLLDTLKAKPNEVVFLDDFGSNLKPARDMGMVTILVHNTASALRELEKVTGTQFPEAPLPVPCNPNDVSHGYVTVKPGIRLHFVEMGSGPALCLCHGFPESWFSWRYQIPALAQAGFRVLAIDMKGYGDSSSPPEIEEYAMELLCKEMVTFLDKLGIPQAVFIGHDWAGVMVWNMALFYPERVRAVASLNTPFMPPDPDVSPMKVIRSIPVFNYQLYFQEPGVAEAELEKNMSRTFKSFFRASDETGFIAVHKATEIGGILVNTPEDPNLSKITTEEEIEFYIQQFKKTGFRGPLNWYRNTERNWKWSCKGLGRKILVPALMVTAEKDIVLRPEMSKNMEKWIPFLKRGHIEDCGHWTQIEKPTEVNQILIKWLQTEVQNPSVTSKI
# method-description: Inhibition of recombinant mouse sEH (MsEH)
# Type: biochemical
# experimental-parameters: Table 2; MsEH 0.13 μM; read-out: Mouse sEH IC50
pIC50: −log10 of the molar value.
measured-metric: pIC50

Fill in the recorded pIC50 for this compound, with recombinant mouse sEH (MsEH) (Mus musculus) as test system: O=C(c1ccccc1)C1OC1c1ccccc1 (racemic) [R=C6H5, R′=C6H5, X—Y=C═O, ±] 5.54

I = ON=C(c1ccccc1)C1OC1c1ccc(-c2ccccc2)cc1 (racemic) [R=4-C6H5—C6H4, R′=C6H5, X—Y=C═NOH, ±]
II = O=[N+]([O-])c1ccc(C2OC2CO)cc1 (racemic) [R=4-NO2—C6H4, R′=H, X—Y=CH—OH, ±]
III = Cc1ccc(C(=O)C2OC2c2ccc(-c3ccccc3)cc2)cc1 (racemic) [R=4-C6H5—C6H4, R′=4-CH3—C6H4, X—Y=C═O, ±]
Rank by pIC50 (largest to smallest). Your reply should list the labels following the order given in the request. III, II, I

* * *

# target-desc: Human sEH (HsEH) (Homo sapiens, UniProt P34913)
# Sequence (P34913 whole entry): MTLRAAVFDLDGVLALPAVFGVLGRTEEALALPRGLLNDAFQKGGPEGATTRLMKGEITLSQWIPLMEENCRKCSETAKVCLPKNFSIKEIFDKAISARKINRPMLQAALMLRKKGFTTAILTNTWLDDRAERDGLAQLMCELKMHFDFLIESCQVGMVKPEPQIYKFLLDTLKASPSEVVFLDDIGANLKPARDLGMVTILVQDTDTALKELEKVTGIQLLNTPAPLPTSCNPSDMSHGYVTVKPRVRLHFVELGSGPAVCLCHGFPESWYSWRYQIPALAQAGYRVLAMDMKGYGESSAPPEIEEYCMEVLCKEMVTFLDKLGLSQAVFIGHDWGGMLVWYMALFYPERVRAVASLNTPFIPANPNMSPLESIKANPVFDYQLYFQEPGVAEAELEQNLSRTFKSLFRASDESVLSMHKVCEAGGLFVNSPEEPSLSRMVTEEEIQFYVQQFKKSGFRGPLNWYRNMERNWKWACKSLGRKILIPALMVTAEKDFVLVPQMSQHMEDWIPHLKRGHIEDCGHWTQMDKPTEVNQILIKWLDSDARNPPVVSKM
# method-description: Inhibition of recombinant human sEH (HsEH)
# Assay type: biochemical
# experimental-parameters: Table 1; HsEH 0.26 μM
measured-metric: IC50 (nM)

Look up IC50 for this compound: "O=C(NC1CCCCC1)OCc1ccc(-c2ccccc2)cc1" 100

Next compound up: "O=C(NC(=O)c1ccc(Cl)cc1)NC1CCCCC1" 100

Next compound up: "O=C(NC1CCCCC1)OCCCCC1CCCCC1" 340

Next compound up: "CCCCCCCCNC(=O)Nc1ccccc1" 580

Next compound up: "O=C(Nc1ccncc1)NC1CCCCC1" 150

Next compound up: "CCCNC(=O)NC1CCCCCCCCCCC1" 1000

Next compound up: "O=C(O)CCCCCCCCCCCNC(=O)NC1CCCCC1" 100

Next compound up: "O=C(O)CCCCCCCCCCCNC(=O)Nc1ccc2ccccc2c1" 1120

1 = CCCCCCCCNC(=O)NCCC
2 = O=C(NC12CC3CC(CC(C3)C1)C2)NC12CC3CC(CC(C3)C1)C2
Hi team, can someone confirm which has the larger IC50: 1 or 2 ? Thanks. State your choice using its label. 1
(1: 680 nM, 2: 100 nM)

* * *

# target-desc: Human sEH (HsEH) (Homo sapiens, UniProt P34913)
# method-description: Inhibition of recombinant human sEH (HsEH)
# Assay type: biochemical
# experimental-parameters: Table 1; HsEH 0.26 μM
pIC50: −log10 of the molar value.
measured-metric: pIC50

Guide cases for pIC50, answers given:
Look up pIC50 for this compound: O=C(NC1CCCCC1)OC1C2CC3CC(C2)CC1C3 (centres unmarked) 7.00

Next compound up: "O=C(NC1CCCCCC1)NC1CCCCC1" 7.00

Next compound up: "CC(C)c1ccc(NC(=O)NCCc2ccccc2)cc1" 6.32

Next compound up: "CC(C)(C)OC(=O)NCCNC(=O)NC1CCCCC1" 6.85

Next compound up: "C=C(C)CCOC(=O)NC1CCCCC1" 6.66

I = O=C(NCCc1ccccc1)NCc1ccccc1
II = CCCCCCCCCCCNC(=O)NCCCC
III = CCCCCCCCCCCCNC(=O)NC(C)(C)CC
Which order do these items take when sorted by rising pIC50? List them. Your reply should list the labels following the order given in the request. III, I, II
(III: 4.82, I: 5.12, II: 6.13)

I = O=C(NCC1CCCCC1)C1CCCCC1
II = O=C(NCCc1ccccc1)NC1CCCCC1
III = CCCCCCCCCCCCCNC(=O)NC1CCCCC1
IV = O=C(NCC1CCCCC1)Nc1ccccc1
Which order do these items take when sorted by rising pIC50? List them. Your reply should list the labels following the order given in the request. I, IV, II, III
(I: 5.69, IV: 6.28, II: 6.80, III: 7.00)
